Values from patent US20260285875A1

Give measured IC50 for each item. Keep answers brief.
# measured_target: cellular PARG (Homo sapiens)
# Construct: endogenous in cells
# Sequence (Q86W56 whole entry): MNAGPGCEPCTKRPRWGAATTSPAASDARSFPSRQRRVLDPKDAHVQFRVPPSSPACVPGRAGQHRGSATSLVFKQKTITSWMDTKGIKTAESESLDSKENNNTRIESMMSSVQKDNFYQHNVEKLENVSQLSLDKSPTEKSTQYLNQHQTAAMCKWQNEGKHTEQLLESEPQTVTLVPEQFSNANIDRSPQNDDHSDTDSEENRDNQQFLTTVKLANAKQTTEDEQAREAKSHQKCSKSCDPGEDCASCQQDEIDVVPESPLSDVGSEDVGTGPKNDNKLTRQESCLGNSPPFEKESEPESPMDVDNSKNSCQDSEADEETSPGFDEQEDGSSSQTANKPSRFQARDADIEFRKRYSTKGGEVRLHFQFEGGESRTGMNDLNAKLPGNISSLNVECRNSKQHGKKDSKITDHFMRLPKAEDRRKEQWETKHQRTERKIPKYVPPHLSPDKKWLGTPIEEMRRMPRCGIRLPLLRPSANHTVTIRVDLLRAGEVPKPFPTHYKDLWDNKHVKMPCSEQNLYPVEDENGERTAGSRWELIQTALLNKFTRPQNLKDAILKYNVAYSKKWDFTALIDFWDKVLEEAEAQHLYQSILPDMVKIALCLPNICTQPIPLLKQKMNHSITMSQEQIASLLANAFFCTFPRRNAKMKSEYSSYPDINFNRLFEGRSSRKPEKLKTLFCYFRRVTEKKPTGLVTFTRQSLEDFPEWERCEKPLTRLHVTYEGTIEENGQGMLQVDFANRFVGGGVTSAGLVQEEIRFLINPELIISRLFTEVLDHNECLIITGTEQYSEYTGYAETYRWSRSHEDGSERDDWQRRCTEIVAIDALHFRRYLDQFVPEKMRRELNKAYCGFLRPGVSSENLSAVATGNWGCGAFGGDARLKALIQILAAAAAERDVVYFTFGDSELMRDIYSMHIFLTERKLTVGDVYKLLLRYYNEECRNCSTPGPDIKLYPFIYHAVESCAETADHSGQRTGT
# protocol_details: Nuclear PAR accumulation assay (immunofluorescence high-content imaging, MMS-treated HeLa cells)
# assay_context: 1 hour compound then MMS 50 μg/mL for an additional hour

Measured IC50, Cn1cc(CN2C(=O)c3cc(S(=O)(=O)NC4(C)CC4)ccc3N3C2=NC[C@H]3COc2ccccc2)cn1 : < 100 nM

Measured IC50, [2H]C([2H])(c1cnn(C)c1)N1C(=O)c2cc(S(=O)(=O)NC3(C)CC3)c(NCC#Cc3cncnc3)cc2N2C1=N[C@H]1CCC[C@H]12 : < 100 nM

Measured IC50, [2H]C([2H])(c1cnn(C)c1)N1C(=O)c2cc(S(=O)(=O)NC3(C)CC3)ccc2N2C1=NC[C@H]2C#Cc1ncc(C)nc1C : < 100 nM

Measured IC50, Cn1cc(CN2C(=O)c3cc(S(=O)(=O)NC4(C)CC4)ccc3N3C[C@H](COCc4ccccc4)N=C23)cn1 : < 100 nM

Measured IC50, C[C@@H]1CN=C2N(Cc3cnn(C)c3)C(=O)c3cc(S(=O)(=O)NC4(C)CC4)cc(C4CC4)c3N21 : < 100 nM

Measured IC50, CCN1C(=O)c2cc(S(=O)(=O)NC3(C)CC3)ccc2N2C1=NC[C@H]2C#Cc1cnn(C)n1 : < 100 nM

Measured IC50, C#C[C@@H]1CN=C2N(Cc3cnc(C)o3)C(=O)c3cc(S(=O)(=O)NC4(C)CC4)ccc3N21 : < 100 nM

Measured IC50, [2H]C([2H])(c1cnn(C)c1)N1C(=O)c2cc(S(=O)(=O)NC3(C)CC3)ccc2N2C1=NC[C@H]2C#Cc1cn(C)nc1F : < 100 nM

Measured IC50, [2H]C([2H])(c1cnn(C)c1)N1C(=O)c2cc(S(=O)(=O)NC3(C)CC3)ccc2N2C1=NC[C@H]2CSC : < 100 nM

Measured IC50, CN1C(=O)c2cc(S(=O)(=O)NC3(C)CC3)ccc2N2C1=NCC2C#Cc1ccc(C#N)nc1 (stereo not shown) : < 100 nM

Measured IC50, C[C@@H]1CN=C2N(Cc3cn(C)nc3C3CC3)C(=O)c3cc(S(=O)(=O)NC4(C)CC4)ccc3N21 : < 100 nM

Measured IC50, CN1C(=O)c2cc(S(=O)(=O)NC3(C)CC3)ccc2N2C1=NC[C@H]2C#Cc1cnc2ccc(C(F)(F)F)nn12 : < 100 nM

Measured IC50, Cn1cc(CN2C(=O)c3cc(S(=O)(=O)NC4(C)CC4)ccc3N3C2=NC[C@H]3C#Cc2ccn(C)n2)cn1 : < 100 nM

Measured IC50, C[C@@H]1CN=C2N(Cc3cnn(C)c3)C(=O)c3cc(S(=O)(=O)NC4(C)CC4)cc(N4CCC(C(=O)N(C)C)CC4)c3N21 : 100 to 1000 nM

Measured IC50, C[C@@H]1CN=C2N(Cc3cnn(C)c3)C(=O)c3cc(S(=O)(=O)NC4(C)COC4)ccc3N21 : 100 to 1000 nM

Measured IC50, Cn1cc(CN2C(=O)c3cc(S(=O)(=O)NC4(C)CC4)ccc3N3C2=NCC3COc2cccc(Cl)c2)cn1 (stereo not shown) : 100 to 1000 nM

Measured IC50, Cn1cc(CN2C(=O)c3cc(S(=O)(=O)NC4(C)CC4)ccc3N3C2=NC[C@H]3C#CC2(N)CC2)cn1 : < 100 nM

Measured IC50, CN1C(=O)c2cc(S(=O)(=O)NC3(C)CC3)ccc2N2C1=NCC2C#Cc1c[nH]c2cnccc12 (stereo not shown) : 100 to 1000 nM

Measured IC50, C[C@@H]1CN=C2N(Cc3cnn(C)c3)C(=O)c3cc(S(=O)(=O)NC4(C)CC4)sc3N21 : 100 to 1000 nM

Measured IC50, Cn1cc(CN2C(=O)c3cc(S(=O)(=O)NC4(C)CC4)ccc3N3C2=NC[C@H]3C2CCC(F)(F)CC2)cn1 : < 100 nM

Measured IC50, C[C@@H]1C[C@@H](C)N2C(=N1)N(Cc1cnn(C)c1)C(=O)c1cc(S(=O)(=O)NC3(C)CC3)ccc12 : < 100 nM

Measured IC50, Cn1cc(CN2C(=O)c3cc(S(=O)(=O)NC4(C)CC4)ccc3N3C2=NC[C@H]3C#Cc2ncnn2C)cn1 : < 100 nM

Measured IC50, C#CCn1cc(CN2C(=O)c3cc(S(=O)(=O)NC4(C)CC4)ccc3N3C2=NC[C@H]3C)cn1 : < 100 nM

Measured IC50, C#CC1(C)CN=C2N(Cc3cnn(C)c3)C(=O)c3cc(S(=O)(=O)NC4(C)CC4)ccc3N21 (single isomer, unassigned) [Example 271] : < 100 nM

Measured IC50, CC(=O)N1CCN(c2cc(S(=O)(=O)NC3(C)CC3)cc3c2N2C(=NC[C@H]2C)N(Cc2cnn(C)c2)C3=O)CC1 : 100 to 1000 nM

Measured IC50, Cn1cc(CN2C(=O)c3cc(S(=O)(=O)NC4(C)CC4)ccc3N3C2=NC[C@H]3C#Cc2ncccn2)cn1 : < 100 nM

Measured IC50, CCN1C(=O)c2cc(S(=O)(=O)NC3(C)CC3)ccc2N2C1=NC[C@H]2C#Cc1cnn2cccnc12 : < 100 nM

Measured IC50, Cn1cc(CN2C(=O)c3cc(S(=O)(=O)NC4(C)CC4)ccc3N3C2=NC[C@H]3C#Cc2ccncc2)cn1 : < 100 nM
